- Test system: OVCAR-3 ovarian
- protocol_description: NCI tumour cell line growth inhibition, 48 h
TGI for assorted compounds

Worked cases, answers included:
COc1ccc2c(c1)[nH]c(=O)c1c3cc(OC)c(OC)cc3cn21
< 0.01 µM
O=C(Nc1ccc(Nc2ccncc2)cc1)c1ccc(Nc2ccnc3ccc([N+](=O)[O-])cc23)cc1[N+](=O)[O-]
> 89.5 µM

Which TGI reading was recorded for the compound CCCCCCCCNC(C)C(O)c1ccc(SC(C)C)cc1 (centres undefined) ?
3.46 µM

Which TGI reading was recorded for the compound COc1ccc([C@H]2c3cc4c(cc3OC(O)(CO)[C@H]2C(=O)O)OCO4)c(OC)c1 (some centres undefined) (tested in a mixture with another compound) ?
> 100 µM

* * *

- Test system: SK-MEL-2 melanoma
- protocol_description: NCI tumour cell line growth inhibition, 48 h
measured_endpoint: TGI (µM)
Give the value, in units of µM, as a plain number.

O=C(c1ccccc1O)c1cc(-c2ncc3c(=O)c4ccccc4oc3n2)c(-c2ccccc2O)[nH]c1=O
46.3

Switching to the query record.
Which TGI reading was recorded for the molecule Cc1c2cccc-2c(OCCOC(=O)n2ccnc2)cc2c1[nH]c1ccccc12 ?
5.48

* * *

- System: UACC-257 melanoma
- protocol_description: NCI tumour cell line growth inhibition, 48 h
GI50 for assorted compounds

CC(C)=CC(=O)N[C@@H]1CC2CCC3C(CC[C@@]4(C)C3CC[C@@H]4C(C)N(C)C)[C@@]2(C)C[C@@H]1O (some centres undefined)
3.53 µM
COc1cc(C(=O)O/N=C(\N)Cc2cccc3ccccc23)cc(OC)c1OC
15.2 µM
O=C(CCN1CCCC1)Nc1ccc2c(NCCc3ccccc3)c3ccccc3nc2c1
1.02 µM
COc1cc(/C(=C2/O[C@@H]([C@H]3COC(C)(C)O3)[C@H]3OC(C)(C)O[C@@H]23)c2ccc3c(c2)OCO3)cc(OC)c1OC
> 25 µM

Which GI50 reading was recorded for the compound O=C1CC(c2ccsc2)c2snc(-c3ccc(Cl)cc3)c2N1 (centres undefined) ?
4.08 µM

Which GI50 reading was recorded for the compound COc1cnc2c(c1)C(=O)c1c-2n(CCCNCCN2CCOCC2)c(=O)c2cc([N+](=O)[O-])ccc12 ?
0.586 µM

Which GI50 reading was recorded for the compound CCOC(=O)c1ccc(N(C=O)CCC(=O)CCl)cc1 ?
1.5 µM

Which GI50 reading was recorded for the compound O=C(c1nn(-c2ccc(Cl)cc2)cc1O)n1nc(C(F)(F)F)cc1-c1ccccc1 ?
2.25 µM

Which GI50 reading was recorded for the compound CC[C@H](C)[C@H](NC(=O)NC(C)(C)C)C(=O)N(C)[C@H](C[C@@H](OC(C)=O)c1nc(C(=O)N[C@@H](Cc2ccccc2)C[C@H](C)C(=O)OC)cs1)C(C)C ?
4.67 µM

* * *

- Tested on: HL-60(TB) leukemia
- protocol_description: NCI tumour cell line growth inhibition, 48 h; in the data active = GI50 below about 0.43 µM; inactive = the rest
Hi there, use one of these labels in your reply, thanks! Y = active, N = inactive

COc1cc(-c2nc(-c3ccc(-c4nc5ccc(F)cc5[nH]4)cc3)no2)cc(OC)c1OC
N

Tell me the assay call for COc1ccc(-n2cc(-c3cc(OC)c(OC)c(OC)c3)[nH]c2=S)cc1Cl please.
N

Tell me the assay call for Cc1ccc(-c2cc(-c3ccc(C)cc3)nc(N3CCN(CCNc4ccnc5cc(Cl)ccc45)CC3)n2)cc1 please.
N

* * *

- Test system: HCT-15 colon
- protocol_description: NCI tumour cell line growth inhibition, 48 h
measured_endpoint: GI50

Worked cases, answers included:
Nc1nccc2c1ccn2-c1cccc(NC(=O)c2ccc(N3CCOCC3)c(C(F)(F)F)c2)c1
443 nM
COc1ccc(-c2nc(-c3ccccn3)c(-c3ccccn3)n2CC(C)C)cc1OC1CCCC1
6720 nM
Cc1c2oc3c(C)cc(F)c(C(=O)NC4C(=O)NC(C(C)C)C(=O)N5CCCC5C(=O)N(C)CC(=O)N(C)C(C(C)C)C(=O)OC4C)c3nc-2c(C(=O)NC2C(=O)NC(C(C)C)C(=O)N3CCCC3C(=O)N(C)CC(=O)N(C)C(C(C)C)C(=O)OC2C)c(N)c1=O (stereo not drawn)
420 nM
O=C(CCN1CCCC1)Nc1ccc2c(NCCc3ccccc3)c3ccccc3nc2c1
1730 nM
O=C(Nc1ccc(Oc2ccc(NC(=O)Nc3ccc([N+](=O)[O-])cc3)cc2)cc1)Nc1ccc([N+](=O)[O-])cc1
1910 nM

Which GI50 reading was recorded for the molecule COc1cc(C(=O)O/N=C(\N)Cc2cccc3ccccc23)cc(OC)c1OC ?
6410 nM

Which GI50 reading was recorded for the molecule COc1ccc(/C=N\NC(=O)c2ccc3nc(-c4ccc(Cl)cc4)[nH]c3c2)cc1 ?
3240 nM

Which GI50 reading was recorded for the molecule CNC(=O)c1cc(Oc2ccc3nc(N[C@@H]4CCCC[C@H]4O)sc3c2)ccn1 ?
38100 nM

* * *

TGI for assorted compounds
- System: IGROV1 ovarian
- protocol_description: NCI tumour cell line growth inhibition, 48 h

Worked cases, answers included:
O=C1CCSC(=S)N1c1ccc(Br)c(Cl)c1
49.5 µM
CN1C=COC1N=C1CCCCC1 (stereo unspecified)
> 100 µM
CC(=O)OCC1OC(SC2=NC(=O)/C(=C/c3ccccc3)S2)C(OC(C)=O)C(OC(C)=O)C1OC(C)=O (stereo unspecified)
> 100 µM
Cc1cn([C@H]2C[C@H](O)[C@@H](CO)O2)c(=O)nc1N
> 100 µM
Cc1ccc2c(=O)cc(Cc3csc4ccccc34)[nH]c2n1
30.9 µM

Switching to the query record.
Which TGI reading was recorded for the compound CCOC(OCC)C(CC)[Se]c1ccccc1 (stereo unspecified) ?
> 100 µM

* * *

- Test system: RPMI-8226 leukemia
- protocol_description: NCI tumour cell line growth inhibition, 48 h
measured_endpoint: TGI

COc1cc(C(=O)O/N=C(\N)Cc2cccc3ccccc23)cc(OC)c1OC
12.6 µM
OCCn1cc(-c2cnc3nnn(Cc4ccc5ncccc5c4)c3n2)cn1
> 100 µM

Which TGI reading was recorded for the molecule C[N+](C)(C)CC(=O)N/N=C(/Cc1nc2ccc([N+](=O)[O-])cc2[nH]c1=O)C(=O)Nc1cc(C(F)(F)F)ccc1Cl ?
> 100 µM

Which TGI reading was recorded for the molecule O=C1CCCCN1C(=O)c1ccc([N+](=O)[O-])cc1 ?
> 100 µM

Which TGI reading was recorded for the molecule Cc1c2cccc-2c(OCCOC(=O)n2ccnc2)cc2c1[nH]c1ccccc12 ?
9.9 µM

Which TGI reading was recorded for the molecule CN1CCN(c2ccc3nc(-c4[nH]ncc4Nc4ncnc5c4OCCCN5)[nH]c3c2)CC1 ?
0.155 µM

Which TGI reading was recorded for the molecule O=C(Oc1ccc2c(-c3ccccc3)c(C(=O)Nc3ccc(Cl)cc3)c(=O)oc2c1)c1ccccc1 ?
> 100 µM

Which TGI reading was recorded for the molecule O=C(Nc1ccc(Oc2ccc(NC(=O)Nc3ccc([N+](=O)[O-])cc3)cc2)cc1)Nc1ccc([N+](=O)[O-])cc1 ?
1.84 µM

Which TGI reading was recorded for the molecule ClC1c2ccccc2C2(c3ccccc3)OOC1(c1ccccc1)O2 (stereo unspecified) ?
3.17 µM

Which TGI reading was recorded for the molecule CC(C)=CC(=O)N[C@@H]1CC2CCC3C(CC[C@@]4(C)C3CC[C@@H]4C(C)N(C)C)[C@@]2(C)C[C@@H]1O (stereo partly specified) ?
18.5 µM

Which TGI reading was recorded for the molecule CN(C)CC1CCCc2ccccc2C1=O (stereo unspecified) ?
0.21 µM

Which TGI reading was recorded for the molecule Cn1cnc(SC2=C3C(=O)C=C4S[C@H]5C[C@]42c2c(c(O)c4c6c2=[N+]3CCC=6C=N4)N5)c1CC(N)C(=O)O (stereo partly specified) ?
55.7 µM

Which TGI reading was recorded for the molecule CCCCCCCCNC(C)C(O)c1ccc(SC(C)C)cc1 (stereo unspecified) ?
4.91 µM

Which TGI reading was recorded for the molecule CC(C)C[CH2][Ge]([CH2]CC(C)C)([CH2]CC(C)C)[CH2]CC(C)C ?
> 100 µM

Which TGI reading was recorded for the molecule CCOC(=O)c1ccccc1SC(C[N+](=O)[O-])c1ccccc1 (stereo unspecified) ?
5.53 µM

Which TGI reading was recorded for the molecule COc1ccc2c(c1)C(=O)c1c-2c(N2CCN(C(=O)CNCCN(C)C)CC2)nc2ccccc12 ?
3.84 µM

Which TGI reading was recorded for the molecule COc1cccc([C@@H]2CC(=O)c3cc4c(cc3N2)OCO4)c1 ?
> 100 µM

Which TGI reading was recorded for the molecule O=C(c1ccccc1)c1c(C(F)(F)F)n([O-])c2cc(F)c(F)cc2[n+]1=O ?
> 100 µM

Which TGI reading was recorded for the molecule O=C1CC(C(COCc2ccccc2)OCc2ccccc2)CC(=O)N1 (stereo unspecified) ?
> 100 µM

* * *

- System: COLO 205 colon
- protocol_description: NCI tumour cell line growth inhibition, 48 h; in the data active = GI50 below about 0.43 µM; inactive = the rest
Hi there, use one of these labels in your reply, thanks! active, inactive

Below, 2 compounds whose answers are already recorded.
COc1ccc(/C=N\NC(=O)c2ccc3nc(-c4ccc(Cl)cc4)[nH]c3c2)cc1
inactive
O=C(c1nn(-c2ccc(Cl)cc2)cc1O)n1nc(C(F)(F)F)cc1-c1ccccc1
inactive

Here is another compound to look at.
Tell me the assay call for COc1cnc2c(c1)C(=O)c1c-2n(CCCNCCN2CCOCC2)c(=O)c2cc([N+](=O)[O-])ccc12 please.
active

Reference source: PubChem BioAssay (NCI)
